- experimental.system: Recombinant human TRKA (Homo sapiens)
- Sequence (P04629 33-796): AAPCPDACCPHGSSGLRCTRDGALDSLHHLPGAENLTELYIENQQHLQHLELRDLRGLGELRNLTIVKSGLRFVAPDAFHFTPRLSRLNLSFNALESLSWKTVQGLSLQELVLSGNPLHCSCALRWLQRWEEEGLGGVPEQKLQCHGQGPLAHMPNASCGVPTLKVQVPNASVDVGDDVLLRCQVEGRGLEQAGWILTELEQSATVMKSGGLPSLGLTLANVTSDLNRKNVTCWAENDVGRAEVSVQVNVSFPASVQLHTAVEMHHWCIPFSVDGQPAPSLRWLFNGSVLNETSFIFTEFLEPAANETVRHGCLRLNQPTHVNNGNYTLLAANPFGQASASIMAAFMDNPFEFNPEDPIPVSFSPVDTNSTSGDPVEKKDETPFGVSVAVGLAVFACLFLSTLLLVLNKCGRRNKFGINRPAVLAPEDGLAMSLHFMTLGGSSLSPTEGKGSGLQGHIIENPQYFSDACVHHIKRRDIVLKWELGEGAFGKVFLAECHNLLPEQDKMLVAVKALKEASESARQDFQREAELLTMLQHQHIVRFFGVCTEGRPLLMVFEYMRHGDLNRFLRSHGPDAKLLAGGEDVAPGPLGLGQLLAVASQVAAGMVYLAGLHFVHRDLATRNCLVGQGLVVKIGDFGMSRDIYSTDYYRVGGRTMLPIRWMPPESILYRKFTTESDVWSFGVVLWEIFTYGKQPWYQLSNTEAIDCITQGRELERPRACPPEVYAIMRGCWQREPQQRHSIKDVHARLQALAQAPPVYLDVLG
- assay.comment: In vitro activity test on TRKA kinase (HTRF KinEASE TK)
- condition.parameters: 14.68 μM ATP, 40 min
experimental.endpoint: IC50

Reference set, count: 8
# input For the molecule [2H]c1nc(-c2cnn(C3CCNCC3)c2)c2nc(N3C[C@@H](F)C[C@@H]3c3cc(F)ccc3F)ccc2n1 [Example 58] , give its measured IC50 value.
# output < 1 nM

# input For the molecule Fc1ccc(F)c([C@H]2C[C@H](F)CN2c2ccc3nncc(-c4cnn(C5CCNCC5)c4)c3n2)c1 [Example 64] , give its measured IC50 value.
# output < 1 nM

# input For the molecule O[C@H]1CCN(c2ccnc3ccc(N4CCC[C@@H]4c4cc(F)ccc4F)nc23)C1 [Example 5] , give its measured IC50 value.
# output < 100 nM

# input For the molecule CC(C)(O)Cn1cc(-c2c(Cl)cnc3ccc(N4C[C@@H](F)C[C@@H]4c4cc(F)ccc4F)nc23)cn1 [Example 35] , give its measured IC50 value.
# output < 1 nM

# input For the molecule Fc1ccc(F)c([C@H]2CCCN2c2ccc3nccc(-c4cnn(C5CCNCC5)c4)c3n2)c1 [Example 7] , give its measured IC50 value.
# output < 50 nM

# input For the molecule Fc1ccc(F)c([C@H]2C[C@H](F)CN2c2ccc3ncc(F)c(-c4cnn(C5CNC5)c4)c3n2)c1 [Example 29] , give its measured IC50 value.
# output < 1 nM

# input For the molecule OC1CCC(Nc2ccnc3ccc(N4C[C@@H](F)C[C@@H]4c4cc(F)ccc4F)nc23)C1 (stereo partly drawn) [Example 2] , give its measured IC50 value.
# output < 10 nM

# input For the molecule Fc1ccc(F)c([C@H]2C[C@H](F)CN2c2ccc3ncnc(-c4cn(C5CCNCC5)nn4)c3n2)c1 [Example 86] , give its measured IC50 value.
# output < 1 nM

Continuing:
# input For the molecule Fc1ccc(F)c([C@H]2C[C@H](F)CN2c2ccc3ncc(Cl)c(-c4cnn([C@@H]5CCNC5)c4)c3n2)c1 [Example 56] , give its measured IC50 value.
# output < 1 nM

# input For the molecule Fc1ccc(F)c([C@H]2C[C@H](F)CN2c2ccc3ncc(Cl)c(-c4cnn([C@H]5CCCNC5)c4)c3n2)c1 [Example 55] , give its measured IC50 value.
# output < 10 nM

# input For the molecule Fc1cnc(Cl)c([C@H]2CCCN2c2ccc3ncc(F)c(-c4cnn(C5CCNCC5)c4)c3n2)c1 [Example 90] , give its measured IC50 value.
# output < 1 nM

# input For the molecule O=c1n(-c2ncnc3ccc(N4C[C@@H](F)C[C@@H]4c4cc(F)ccc4F)nc23)ccn1C1CCNCC1 [Example 96] , give its measured IC50 value.
# output < 1 nM

---

- experimental.system: recombinant human TRKA (G595R) (Homo sapiens, UniProt P04629, G595R)
- Construct: purchased SignalChem
- Sequence (P04629 33-796 G595R): as the sequence (P04629 33-796) above, with G563R counted along it
- assay.comment: In vitro activity test on mutant TRKA (G595R) (HTRF KinEASE TK)
- Assay type: biochemical
- condition.parameters: 4.5 μM ATP, 30 min
- Protocol: Biological Test Example 2 In Vitro Activity Test on Mutant TRKA (G595R), TRKA (G667C) and TRKC (G623R) The recombinant human TRKA (G595R), TRKA (G667C) and TRKC (G623R) proteins were purchased from SignalChem. […] Synergy Neo 2 of Biotek was used to read the plate. […] 10 μL of detection reagent was added to the plate (containing 0.125 μM SA-XL665 and 5 μL 1×TK-Antibody) and incubated overnight at room temperature, and Synergy Neo 2 was used to read the plate. […]
# IC50 per entry

Reference set, count: 2
# input Give IC50 only, for Fc1ccc(F)c([C@H]2C[C@H](F)CN2c2ccc3ncnc(-c4noc(C5CCNCC5)n4)c3n2)c1 , using recombinant human TRKA (G595R) (Homo sapiens, UniProt P04629, G595R) data.
# output < 10 nM

# input Give IC50 only, for Fc1ccc(F)c([C@H]2C[C@H](F)CN2c2ccc3ncnc(-c4cnn(CC5CNC5)c4)c3n2)c1 , using recombinant human TRKA (G595R) (Homo sapiens, UniProt P04629, G595R) data.
# output < 10 nM

As a next step, examine the molecule that follows.
# input Give IC50 only, for Fc1ccc(Cl)c([C@H]2CCCN2c2ccc3ncc(F)c(-c4cnn(C5CCNCC5)c4)c3n2)c1 , using recombinant human TRKA (G595R) (Homo sapiens, UniProt P04629, G595R) data.
# output < 1 nM
